- Target or system: Human recombinant MMP-9 (Homo sapiens, UniProt P14780)
- Construct: made in house; host or cells: MMP-9-transfected HT1080 cells (spent media)
- Sequence (P14780 107-707 limits assumed): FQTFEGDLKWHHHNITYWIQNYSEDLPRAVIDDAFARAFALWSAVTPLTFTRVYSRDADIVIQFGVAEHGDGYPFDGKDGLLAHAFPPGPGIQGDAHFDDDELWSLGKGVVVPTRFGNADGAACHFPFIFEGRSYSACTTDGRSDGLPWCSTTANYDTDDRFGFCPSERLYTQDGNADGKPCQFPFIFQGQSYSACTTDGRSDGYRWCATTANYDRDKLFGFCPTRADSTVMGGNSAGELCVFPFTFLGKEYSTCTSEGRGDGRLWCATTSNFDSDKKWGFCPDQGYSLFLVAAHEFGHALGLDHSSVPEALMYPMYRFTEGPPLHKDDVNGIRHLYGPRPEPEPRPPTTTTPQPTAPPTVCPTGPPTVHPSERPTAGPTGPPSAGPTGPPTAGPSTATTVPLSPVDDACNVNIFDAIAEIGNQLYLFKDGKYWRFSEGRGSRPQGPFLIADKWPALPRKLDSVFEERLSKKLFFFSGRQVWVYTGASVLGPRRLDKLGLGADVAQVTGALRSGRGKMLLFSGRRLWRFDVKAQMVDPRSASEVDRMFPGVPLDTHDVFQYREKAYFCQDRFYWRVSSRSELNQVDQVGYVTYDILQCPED
- Protocol: In vitro MMP inhibition, IC50 determination (fluorogenic substrate I)
- Assay type: biochemical
- Test context: value outside parenthesis
Kindly state IC50 for each of the entries shown.
Give bare numbers, in nM.

The following molecules each have a reported value; give each one's IC50.
1. O=C(NO)C1(S(=O)(=O)c2ccc(OCCCSc3nc4ccccc4o3)cc2)CCN(C2CC2)CC1
2. O=C1N(CCCOc2ccc(S(=O)(=O)C3(C(=O)NO)CCOCC3)cc2)CCN1c1ccc(C(F)(F)F)cc1
3. O=C(CCCOc1ccc(S(=O)(=O)C2(C(=O)NO)CCOCC2)cc1)Nc1ccc(OC(F)(F)F)cc1 [Example 250]

Response given:
1. 6
2. 273
3. 22.5
